TEST SYSTEM: human muscarinic M3 receptors (Homo sapiens, UniProt P20309)
Construct: purchased Perkin Elmer; host or cells: CHO-K1 cells
Sequence (P20309 whole entry): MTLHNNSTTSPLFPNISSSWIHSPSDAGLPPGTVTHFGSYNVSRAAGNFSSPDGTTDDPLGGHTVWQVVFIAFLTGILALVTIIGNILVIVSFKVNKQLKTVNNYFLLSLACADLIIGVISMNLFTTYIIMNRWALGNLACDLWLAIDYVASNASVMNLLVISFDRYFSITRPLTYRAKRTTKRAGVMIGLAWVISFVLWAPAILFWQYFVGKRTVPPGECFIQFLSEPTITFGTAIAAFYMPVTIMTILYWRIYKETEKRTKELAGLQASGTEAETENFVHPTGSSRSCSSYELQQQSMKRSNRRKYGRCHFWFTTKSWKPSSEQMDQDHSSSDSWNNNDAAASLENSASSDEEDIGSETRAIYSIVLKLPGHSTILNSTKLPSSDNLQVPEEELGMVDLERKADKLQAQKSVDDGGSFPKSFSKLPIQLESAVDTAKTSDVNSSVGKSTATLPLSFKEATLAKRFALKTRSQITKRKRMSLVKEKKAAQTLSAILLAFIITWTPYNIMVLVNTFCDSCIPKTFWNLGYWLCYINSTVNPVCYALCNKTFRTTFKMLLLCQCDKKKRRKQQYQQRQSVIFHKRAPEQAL
EXPERIMENTAL PROTOCOL: Human muscarinic M3 receptors binding assay ([3H]-NMS, CHO-K1 membranes)
MEASUREMENT CONTEXT: membranes from CHO-K1 cells, [3H]-NMS radioligand, two hours incubation
MEASURE: pIC50
Answers are plain numbers, as −log10 of the molar value.

- O=C1c2ccc(CNC[C@H](O)c3ccc(O)c4[nH]c(=O)ccc34)cc2CN1CCCCc1cccc(C2(C(=O)O[C@H]3CN4CCC3CC4)CCCCC2)c1 [Example 23]: 9.21
- O=C(O[C@H]1CN2CCC1CC2)C1(c2cccc(CCCCn3c(=O)oc4cc(CNC[C@H](O)c5ccc(O)c6[nH]c(=O)ccc56)ccc43)c2)CCCCC1 [Example 1]: 8.80

Could you report pIC50 for every entry in the following list?
1. COc1cc(NCC(=O)NCCCc2cccc(C3(C(=O)O[C@H]4CN5CCC4CC5)CCCCC3)c2)c(Cl)cc1CNC[C@H](O)c1ccc(O)c2[nH]c(=O)ccc12 [Example 30]
2. COc1cc(C(=O)N(C)CCCc2cccc(C3(C(=O)O[C@H]4CN5CCC4CC5)CCCCC3)c2)c(Cl)cc1CNC[C@H](O)c1ccc(O)c2[nH]c(=O)ccc12 [Example 12]
3. O=C(NCCCCc1cccc(C2(C(=O)O[C@H]3CN4CCC3CC4)CCCCC2)c1)c1ccc(CNC[C@H](O)c2ccc(O)c3[nH]c(=O)ccc23)nc1 [Example 21]
4. COc1cc(OCC(=O)NCCCCc2cccc(C3(C(=O)O[C@H]4CN5CCC4CC5)CCCCC3)c2)c(Cl)cc1CNCC(O)c1ccc(O)c2[nH]c(=O)ccc12 (stereo partly drawn) [Example 24]
5. COc1cc(NC(=O)CCCc2cccc(C3(C(=O)OCC45CCN(CC4)CC5)CCCCC3)c2)c(Cl)cc1CNC[C@H](O)c1ccc(O)c2[nH]c(=O)ccc12 [Example 18]

1: 8.82; 2: 8.68; 3: 9.22; 4: 9.48; 5: 9.85

Could you report pIC50 for every entry in the following list?
1. O=C(CCCc1cccc(C2(C(=O)O[C@H]3CN4CCC3CC4)CCCCC2)c1)Nc1ccc(CNC[C@H](O)c2ccc(O)c3[nH]c(=O)ccc23)nc1 [Example 11]
2. COc1cc(NC(=O)CCCc2cccc(C3(C(=O)OCC4CCNCC4)CCCCC3)c2)c(Cl)cc1CNC[C@H](O)c1ccc(O)c2[nH]c(=O)ccc12 [Example 28]

9.31
9.44

Could you report pIC50 for every entry in the following list?
1. COc1cc(OCC(=O)OC2CCC(Cc3cccc(C4(C(=O)O[C@H]5CN6CCC5CC6)CCCCC4)c3)CC2)c(Cl)cc1CNC[C@H](O)c1ccc(O)c2[nH]c(=O)ccc12 (stereo partly drawn) [Example 14]
2. COc1cc(NC(=O)CCCc2ccc(C3(C(=O)O[C@H]4CN5CCC4CC5)CCCCC3)cc2)c(Cl)cc1CNC[C@H](O)c1ccc(O)c2[nH]c(=O)ccc12 [Example 31]
3. COc1cc(C(=O)NCCCCc2cccc(C3(C(=O)O[C@H]4CN5CCC4CC5)CCCCC3)c2)c(Cl)cc1CNC[C@H](O)c1ccc(O)c2[nH]c(=O)ccc12 [Example 9]
4. COc1cc(OCC(=O)N(C)CCCc2cccc(C3(C(=O)O[C@H]4CN5CCC4CC5)CCCCC3)c2)c(Cl)cc1CNC[C@H](O)c1ccc(O)c2[nH]c(=O)ccc12 [Example 4]
5. COc1cc(C(=O)NCCCc2cccc(C3(C(=O)O[C@H]4CN5CCC4CC5)CCCCC3)c2)c(Cl)cc1CNC[C@H](O)c1ccc(O)c2[nH]c(=O)ccc12 [Example 20]
6. COc1cc(OCC(=O)OCCCc2cccc(C3(C(=O)O[C@H]4CN5CCC4CC5)CCCCC3)c2)c(Cl)cc1CNC[C@H](O)c1ccc(O)c2[nH]c(=O)ccc12 [Example 10]
7. COc1cc(NC(=O)CCCc2cccc(C3(C(=O)O[C@H]4CN5CCC4CC5)CCCCC3)c2)c(Cl)cc1CNC[C@H](O)c1ccc(O)c2[nH]c(=O)ccc12 [Example 2]
8. COc1cc(C(=O)OCCCc2cccc(C3(C(=O)O[C@H]4CN5CCC4CC5)CCCCC3)c2)c(Cl)cc1CNC[C@H](O)c1ccc(O)c2[nH]c(=O)ccc12 [Example 13]

8.15
9.39
9.02
9.13
9.85
9.06
9.66
9.21

Could you report pIC50 for every entry in the following list?
1. O=C(CCCc1cccc(C2(C(=O)O[C@H]3CN4CCC3CC4)CCCCC2)c1)N[C@H]1CC[C@H](CNC[C@H](O)c2ccc(O)c3[nH]c(=O)ccc23)CC1 [Example 3]
2. O=C(CCCc1cccc(C2(C(=O)O[C@H]3CN4CCC3CC4)CCCCC2)c1)NCCCCCNC[C@H](O)c1ccc(O)c2[nH]c(=O)ccc12 [Example 7]
3. COc1cc(C(=O)OCCCCc2cccc(C3(C(=O)O[C@H]4CN5CCC4CC5)CCCCC3)c2)c(Cl)cc1CNC[C@H](O)c1ccc(O)c2[nH]c(=O)ccc12 [Example 22]
4. O=C(O[C@H]1CN2CCC1CC2)C1(c2cccc(CCCCn3nnc4cc(CNC[C@H](O)c5ccc(O)c6[nH]c(=O)ccc56)ccc43)c2)CCCCC1 [Example 5]

1: 8.77; 2: 8.82; 3: 9.54; 4: 8.96
